Reference source: patent EP4458977A1

Tested on: HeLa cells
Assay details: Confocal laser scanning microscopy and degradation study with PA library and HeLa cells
Format: cell-based
Condition label: HeLa cells; 3 d relative to 30 min
Where a SMILES comes first, the peptide text is derived from it. The star is where a group is joined. Palmitoyl = CCCCCCCCCCCCCCCC(=O)*; Lauroyl = CCCCCCCCCCCC(=O)*
Form field: Degradability / % (rel. to initial particles > 10 µm^2) (one value per entry).
Kindly answer with a numeric value in %, unit omitted.

Compound	Result unit	Reported value
CCCCCCCCCCCCCCCC(=O)N[C@@H](C)C(=O)N[C@H](C(=O)N[C@@H](C)C(=O)N[C@@H](CCCCN)C(=O)N[C@@H](CCCCN)C(=O)N[C@@H](CCCCN)C(N)=O)C(C)C [Pat21, C16-AVAKKK-NH2] (Palmitoyl-AVAKKK-NH2)	%	68
CCCCCCCCCCCCCCCC(=O)N[C@@H](C)C(=O)N[C@@H](CC(C)C)C(=O)N[C@@H](C)C(=O)N[C@@H](C)C(=O)NCC(=O)N[C@@H](CCCCN)C(=O)N[C@@H](CCCCN)C(N)=O [Pat20, C16-ALAAGKK-NH2] (Palmitoyl-ALAAGKK-NH2)	%	87
CCCCCCCCCCCCCCCC(=O)N[C@@H](C)C(=O)N[C@@H](CCC(N)=O)C(=O)N[C@@H](C)C(=O)N[C@@H](CCCCN)C(=O)N[C@@H](C)C(=O)N[C@@H](CCCCN)C(N)=O [Pat16, C16-AQAKAK-NH2] (Palmitoyl-AQAKAK-NH2)	%	-83
CCCCCCCCCCCCCCCC(=O)N[C@@H](CCCCN)C(=O)N[C@@H](Cc1ccc(O)cc1)C(=O)N[C@H](C(=O)N[C@@H](Cc1c[nH]cn1)C(=O)N[C@@H](CCC(N)=O)C(=O)N[C@@H](CC(N)=O)C(=O)N[C@@H](Cc1ccc(O)cc1)C(=O)N[C@H](C(=O)N[C@@H](CCCCN)C(=O)N[C@@H](C)C(=O)N[C@@H](CC(C)C)C(=O)N[C@@H](C)C(=O)NCC(=O)N[C@@H](CCCCN)C(=O)N[C@@H](CC(C)C)C(=O)N[C@H](C(N)=O)C(C)C)[C@@H](C)O)[C@@H](C)CC [Pat26] (Palmitoyl-KYIHQNYTKALAGKLV-NH2)	%	-110
CCCCCCCCCCCCCCCC(=O)N[C@H](C(=O)N[C@H](C(=O)N[C@@H](CCC(N)=O)C(=O)N[C@@H](CCCCN)C(=O)N[C@H](C(=O)N[C@@H](CCCCN)C(N)=O)[C@@H](C)CC)[C@@H](C)CC)[C@@H](C)CC [Pat15, C16-IIQKIK-NH2] (Palmitoyl-IIQKIK-NH2)	%	-28

Requested field: Degradability / % (rel. to initial particles > 10 µm^2). Item: CCCCCCCCCCCCCCCC(=O)N[C@@H](C)C(=O)N[C@@H](CCCCN)C(=O)N[C@@H](C)C(=O)N[C@H](C(=O)NCC(=O)N[C@@H](CCCCN)C(N)=O)C(C)C [Pat31, C16-AKAVGK-NH2] (Palmitoyl-AKAVGK-NH2)
89

Which Degradability / % (rel. to initial particles > 10 µm^2) is reported for this compound? CCCCCCCCCCCC(=O)N[C@H](C(=O)N[C@H](C(=O)N[C@H](C(=O)N[C@@H](C)C(=O)N[C@@H](C)C(=O)N[C@@H](C)C(=O)N[C@@H](CCCCN)C(=O)N[C@@H](CCCCN)C(=O)N[C@@H](CCCCN)C(N)=O)C(C)C)C(C)C)C(C)C [Pat7] (Lauroyl-VVVAAAKKK-NH2)
-32
